Molecular target: PRMT5-MTA (Homo sapiens)
Sequence (O14744 whole entry): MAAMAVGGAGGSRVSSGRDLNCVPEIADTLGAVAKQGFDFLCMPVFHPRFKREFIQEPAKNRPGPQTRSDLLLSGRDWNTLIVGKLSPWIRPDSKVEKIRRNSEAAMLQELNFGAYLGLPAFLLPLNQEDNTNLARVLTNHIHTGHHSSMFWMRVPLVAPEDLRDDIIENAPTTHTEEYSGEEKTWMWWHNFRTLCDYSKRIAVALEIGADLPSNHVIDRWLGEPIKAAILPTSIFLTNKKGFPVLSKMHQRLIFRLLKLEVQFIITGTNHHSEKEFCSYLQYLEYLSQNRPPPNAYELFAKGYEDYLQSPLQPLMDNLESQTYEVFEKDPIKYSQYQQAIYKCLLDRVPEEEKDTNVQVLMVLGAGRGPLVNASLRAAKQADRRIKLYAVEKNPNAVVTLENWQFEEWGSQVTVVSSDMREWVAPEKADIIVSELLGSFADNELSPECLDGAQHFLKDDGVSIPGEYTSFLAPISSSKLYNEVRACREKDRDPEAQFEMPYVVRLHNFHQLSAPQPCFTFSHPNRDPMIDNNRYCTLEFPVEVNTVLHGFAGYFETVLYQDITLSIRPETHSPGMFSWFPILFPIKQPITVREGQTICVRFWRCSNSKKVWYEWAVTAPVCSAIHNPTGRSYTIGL
Sequence (Q9BQA1 whole entry partner): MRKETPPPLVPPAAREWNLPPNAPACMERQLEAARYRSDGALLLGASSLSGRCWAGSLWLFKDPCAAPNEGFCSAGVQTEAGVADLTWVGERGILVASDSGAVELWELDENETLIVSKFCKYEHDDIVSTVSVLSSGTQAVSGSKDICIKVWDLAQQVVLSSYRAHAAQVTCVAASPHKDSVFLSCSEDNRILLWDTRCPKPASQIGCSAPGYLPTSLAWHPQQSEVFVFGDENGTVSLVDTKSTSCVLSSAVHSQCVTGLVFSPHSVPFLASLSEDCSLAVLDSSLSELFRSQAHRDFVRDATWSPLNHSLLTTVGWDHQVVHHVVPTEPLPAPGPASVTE
Assay: Enzymatic inhibitory activity against PRMT5-MTA (AlphaScreen)
Assay type: biochemical
Conditions: read-out: IC50
Parameter: IC50 (nM)
One number for each entry, in nM.

Known results for compounds:
Cc1cc2cc(C(=O)N(Cc3ccc(C(F)(F)F)cn3)N3CCc4cccnc43)ccc2nc1N: 4.3
Cc1cc2nc(N)c3cnn(C)c3c2cc1C(=O)N1CCCCN1c1ccc(C(F)(F)F)cn1: 3.9
CN(c1ncccn1)N(Cc1ccc(C(F)(F)F)cn1)C(=O)c1ccc2nc(N)c(C(F)(F)F)cc2c1: 8.4
Cc1cc2cc(C(=O)N(Cc3ccc(C(F)(F)F)cn3)N(C)c3ncc(C(F)(F)F)cc3F)ccc2nc1N: 1.7
COc1ccccc1N1CC(C)CN1C(=O)c1cc2c(cc1C)nc(N)c1cnn(C)c12 (stereo not drawn): 3.5

# return IC50 for each item in the list
1. Cc1cc2cc(C(=O)N(Cc3ccc(-c4cncnc4)cn3)N(C)c3ncccn3)ccc2nc1N
2. [2H]C([2H])([2H])N(c1ncccn1)N(Cc1ccc(C(F)(F)F)cn1)C(=O)c1ccc2nc(N)c(C)cc2c1
3. CN(c1ncccn1)N(Cc1ccc(-c2cnn(C(F)(F)F)c2)cn1)C(=O)c1ccc2nc(N)c(CO)cc2c1
4. Cc1cc2nc(N)c3cnn(C)c3c2cc1C(=O)N1CC(C)CN1c1ncc(-c2cnc3c(cnn3C)c2)cc1F (stereo not drawn)
5. [2H]C([2H])([2H])n1ncc2c(N)nc3cc(Cl)c(C(=O)N4CC(C)CN4c4ncccc4F)cc3c21 (stereo not drawn)
6. Cc1cc2cc(C(=O)N(Cc3ccc(C(F)(F)F)cn3)N(C)c3nccc4nccnc34)ccc2nc1N
7. Cc1cc2cc(C(=O)N(Cc3ccc(-c4cccnc4)cc3F)N(C)c3ncccn3)ccc2nc1N
8. Cc1cc2cc(C(=O)N(Cc3ccc(-c4cnn(C)c4)cn3)N(C)c3nccc4nccnc34)ccc2nc1N

Reply |
1: 2.7; 2: 2.1; 3: 4.4; 4: 5.3; 5: 16.6; 6: 2.5; 7: 1.1; 8: 5.4

# return IC50 for each item in the list
1. Cc1cc2cc(C(=O)N(Cc3ccc(-c4ccc(C#N)nc4)cn3)N(C)c3ncccn3)ccc2nc1N
2. Cc1cc2cc(C(=O)N(Cc3ccc(C(F)(F)F)cn3)N(CC(F)(F)F)c3ncccn3)ccc2nc1N

Reply |
1. 3
2. 17.2

---

System: HCT116 MTAP KO cells
Assay: Inhibitory activity against cell proliferation (CellTiter Glo, 6 days), HCT116 MTAP KO
Type: cell-based
Conditions: ratio of IC50 HCT116-WT / HCT116 MTAP KO
Please note: Selectivity HCT 116-WT/ HCT116 MTAP KO exactly at 20 is n. Only values below 20 get y.

Below are worked cases with known answers.
Cc1cc2nc(N)c3cnn(C)c3c2cc1C(=O)N1CC2(CCC2)CN1c1ncccc1F: n
Cc1cc2cc(C(=O)N(Cc3ccc(Br)cn3)N(c3ncccn3)C3CC3)ccc2nc1N: y

Ask | Problem: For the molecule Cc1cc2nc(N)c3cnn(C)c3c2cc1C(=O)N1CC(OCC(F)(F)F)CN1c1ncccc1F (centres unmarked) , is Selectivity HCT 116-WT/ HCT116 MTAP KO under 20?
Reply | n

Ask | Do the same for COc1cccc(N2CC(C)CN2C(=O)c2cc3c(cc2C)nc(N)c2cnn(C)c23)n1 (centres unmarked) please
Reply | n

Ask | Do the same for Cc1cc2nc(N)c3cnn(C)c3c2cc1C(=O)N1CCCN1c1ccc(C2CC2)cn1 please
Reply | n

Ask | Do the same for COCCN(C)c1ccc(-c2ccc(CN(C(=O)c3ccc4nc(N)c(C)cc4c3)N(C)c3ncccn3)nc2)cn1 please
Reply | y

Ask | Do the same for Cc1cc2cc(C(=O)N(Cc3ccc(C4=CCCOC4)cn3)N(C)c3ncccn3)ccc2nc1N please
Reply | n
